The values you see were collected from patent US20240067748A1.

Target: T1, mouse Trop2-his protein (Sino Biological, #50922-M08H) (mouse, UniProt Q8BGV3 25-270)
T1 construct: bought protein; also called mouse Trop2 protein; not shown: his tag
T1 sequence (looked up): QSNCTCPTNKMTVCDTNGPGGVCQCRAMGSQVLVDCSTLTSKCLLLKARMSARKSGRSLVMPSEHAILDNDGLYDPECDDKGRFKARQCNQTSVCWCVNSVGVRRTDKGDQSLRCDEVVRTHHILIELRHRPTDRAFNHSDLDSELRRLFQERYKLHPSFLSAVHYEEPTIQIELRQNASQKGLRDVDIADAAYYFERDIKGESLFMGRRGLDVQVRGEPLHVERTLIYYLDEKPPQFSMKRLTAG
Assay: ELISA, plate coated with mouse Trop2-his protein, anti-human IgG (H+L)-HRP, OD450 nm
measured-attribute: binding result

PR001133 (antibody, human IgG1, kappa, V domains shown, fully human IgG1/kappa; also called antibody No. (5)) VH: QVNLVESGGGVVQPGRSLKLSCAASGFTFSSYGMHWVRQAPGKGLEWVALIWSDGTNRYYTESVKGRFTISRDNSKNTLSLQMKSLRAEDTAVYYCAKDGWGTYGEYFQHWGQGTLVTVSS VL: DIQMTQSPSSLSASVGDRVTITCRASQNINSYLHWYQQKPGKAPKLLIYAASSLQSGVPSRFSGSGSGTDFTLTISSLQPEDFAIYYCQQSYSIPPITFGQGTRLEIKR ... no binding
PR001165 (antibody, human IgG1, kappa, V domains shown, fully human IgG1/kappa; also called antibody No. (26)) VH: QVQLVESGGGVVQPGRSLRLSCEASGFTFSHYGMHWVRQAPGKGLEWVAVIWYDGIKTYYVESVKGRFTISRDNSKNTLNLQMNRLRAEDTAVYYCARDGGFGESNYYGLDVWGQGTTVTVSS VL: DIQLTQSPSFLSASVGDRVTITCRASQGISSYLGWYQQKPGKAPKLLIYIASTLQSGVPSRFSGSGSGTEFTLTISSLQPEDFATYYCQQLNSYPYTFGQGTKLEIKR ... no binding
PR001166 (antibody, human IgG1, kappa, V domains shown, fully human IgG1/kappa; also called antibody No. (27)) VH: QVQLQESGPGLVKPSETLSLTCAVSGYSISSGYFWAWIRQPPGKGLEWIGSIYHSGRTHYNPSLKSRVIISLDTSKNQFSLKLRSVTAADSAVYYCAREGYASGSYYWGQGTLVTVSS VL: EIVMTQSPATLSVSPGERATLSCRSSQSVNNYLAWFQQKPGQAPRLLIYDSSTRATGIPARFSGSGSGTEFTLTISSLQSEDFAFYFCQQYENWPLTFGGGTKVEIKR ... binds
